Listing: LXR beta actiivty at max dose (%) of selected compounds
- assayed-system: glutathione-S-transferase (GST) tagged LXRbeta LBD (ligand binding domain) (Homo sapiens)
- Construct: purchased Invitrogen pv4658.pps
- procedure-summary: LanthaScreen TR-FRET Liver X Receptor Coactivator Assay, LXR beta
- Assay type: biochemical
- assay-conditions: efficacy (Emax) in relation to reference dual agonist T0901317
observable: LXR beta actiivty at max dose (%)

INSERT INTO results (compound, observable, readout_value) VALUES
  ('CN(C)C(=O)c1ccc(CCCCC2CCN(C(=O)C(O)(c3ccccc3)C(F)(F)F)CC2)cc1Cl (single isomer, unassigned) [Example 15-3]', 'LXR beta actiivty at max dose (%)', 116),
  ('CN(C)C(=O)c1ccc(CCCCC2CCN(C(=O)C(O)(c3ccccc3)C(F)(F)F)CC2)cc1Cl (single isomer, unassigned) [Example 15-2]', 'LXR beta actiivty at max dose (%)', 95),
  ('CC(CCCC1CCN(C(=O)[C@](O)(c2ccccc2)C(F)(F)F)CC1)Nc1ccc(C(=O)N(C)C)c(Cl)c1 (single isomer, unassigned)', 'LXR beta actiivty at max dose (%)', 59),
  ('CN(C)C(=O)c1ccc(CCCCCC2CCN(C(=O)C(O)(c3ccccc3)C(F)(F)F)CC2)cc1Cl (single isomer, unassigned)', 'LXR beta actiivty at max dose (%)', 84);

---

- assayed-system: glutathione-S-transferase (GST) tagged LXRbeta LBD (ligand binding domain) (Homo sapiens, UniProt P55055)
- Construct: purchased Invitrogen pv4658.pps
- Sequence (P55055 222-460 limits assumed): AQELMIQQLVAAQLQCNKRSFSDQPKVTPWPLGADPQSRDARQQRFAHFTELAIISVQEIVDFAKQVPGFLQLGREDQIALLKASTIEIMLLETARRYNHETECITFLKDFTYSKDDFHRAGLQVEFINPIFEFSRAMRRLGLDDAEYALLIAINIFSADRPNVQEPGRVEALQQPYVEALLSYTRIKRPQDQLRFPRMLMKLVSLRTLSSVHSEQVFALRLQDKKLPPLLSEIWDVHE
- procedure-summary: LanthaScreen TR-FRET Liver X Receptor Coactivator Assay, LXR beta
- Assay type: biochemical
- assay-conditions: potency (Inflection Point) of compound-induced co-activator recruitment, TR-FRET; read-out: LXR beta IP
observable: EC50 (nM)

INSERT INTO assay_data (molecule, readout_units, readout_value) VALUES
  ('CN(C(=O)c1ccc(NCCC[C@@H]2CC23CCN(C(=O)[C@](O)(c2ccccc2)C(F)(F)F)CC3)cc1Cl)C1CC1 (single isomer, unassigned)', 'nM', 49),
  ('COc1cccc([C@@](O)(C(=O)N2CCC(CC3CC(Nc4ccc(C(=O)N(C)C)c(Cl)c4)C3)CC2)C(F)(F)F)c1 (single isomer, unassigned)', 'nM', 8),
  ('CN(C)C(=O)c1ccc(SC2CCC3(CC2)CCN(C(=O)C(O)(c2cc(Cl)cc(Cl)c2)C(F)(F)F)CC3)cc1Cl (single isomer, unassigned)', 'nM', 38),
  ('CN(C)C(=O)c1ccc(S(=O)(=O)CCCCC2CCN(C(=O)C(C)(C)c3ccccc3)CC2)cc1Cl', 'nM', 1990),
  ('CC(CCCC1CCN(C(=O)[C@](O)(c2ccccc2)C(F)(F)F)CC1)Nc1ccc(C(=O)N(C)C)c(Cl)c1 (single isomer, unassigned) [Example 4-4]', 'nM', 325),
  ('COc1cccc([C@@](O)(C(=O)N2CCC(CCCC(C)Nc3ccc(C(=O)N(C)C)c(Cl)c3)CC2)C(F)(F)F)c1 (single isomer, unassigned)', 'nM', 3770),
  ('CNC(=O)c1ccc(NCCCCC2CCN(C(=O)C(O)(c3cccc(OC4CC4)c3)C(F)(F)F)CC2)cc1Cl (single isomer, unassigned)', 'nM', 14),
  ('CNC(=O)c1ccc(NCCCCC2CCN(C(=O)C(O)(c3cccc(OC(F)(F)F)c3)C(F)(F)F)CC2)cc1Cl (single isomer, unassigned)', 'nM', 17),
  ('COc1cccc([C@@](O)(C(=O)N2CCC(CCC[C@H](C)Nc3ccc(C(=O)N(C)C)c(Cl)c3)CC2)C(F)(F)F)c1 (single isomer, unassigned)', 'nM', 13),
  ('CN(C)C(=O)c1ccc(CCCCC2CCN(C(=O)C(C)(C)c3ccccc3)CC2)cc1Cl', 'nM', 32),
  ('CN(C)C(=O)c1ccc(CCCCC2CCN(C(=O)C(O)(c3ccccc3)C(F)(F)F)CC2)cc1Cl (single isomer, unassigned) [Example 15-3]', 'nM', 31),
  ('COc1cccc([C@@](O)(C(=O)N2CCC3(CC2)C[C@H]3CCCc2ccc(C(=O)N(C)C)c(Cl)c2)C(F)(F)F)c1 (single isomer, unassigned)', 'nM', 12),
  ('CN(C)C(=O)c1ccc(N(C)CCC2CC23CCN(C(=O)C(C)(C)c2ccccc2)CC3)cc1Cl (single isomer, unassigned)', 'nM', 29),
  ('CNC(=O)c1ccc(NCCCCC2CCN(C(=O)C(O)(c3cccc(OC(C)C)c3)C(F)(F)F)CC2)cc1Cl (single isomer, unassigned)', 'nM', 14),
  ('CN(C)C(=O)c1ccc(NCCCC2CCN(S(=O)(=O)c3c(Cl)cccc3Cl)CC2)cc1Cl', 'nM', 27),
  ('CN(C)C(=O)c1ccc(NC[C@H]2C[C@H]2C2CCN(C(=O)[C@](O)(c3ccccc3)C(F)(F)F)CC2)cc1Cl (single isomer, unassigned)', 'nM', 4),
  ('CN(C)C(=O)c1ccc(NCCCCC2CCN(C(=O)OCc3ccccc3)CC2)cc1Cl', 'nM', 106),
  ('CC(CCCC1CCN(C(=O)[C@](O)(c2ccccc2)C(F)(F)F)CC1)Nc1ccc(C(=O)N(C)C)c(Cl)c1 (single isomer, unassigned) [Example 4-3]', 'nM', 15),
  ('CNC(=O)c1ccc(CCCCCC2CCN(C(=O)C(O)(c3cccc(OC)c3)C(F)(F)F)CC2)cc1Cl (single isomer, unassigned)', 'nM', 6),
  ('NC(=O)c1ccc(NCCCCC2CCN(C(=O)C(O)(c3ccccc3)C(F)(F)F)CC2)cc1Cl (single isomer, unassigned)', 'nM', 15),
  ('CCc1cccc(C(O)(C(=O)N2CCC(CCCCNc3ccc(C(=O)NC)c(Cl)c3)CC2)C(F)(F)F)c1 (single isomer, unassigned)', 'nM', 4),
  ('CN(C)C(=O)c1ccc(CCC[C@H]2CC23CCN(C(=O)[C@](O)(c2ccccc2)C(F)(F)F)CC3)cc1Cl (single isomer, unassigned)', 'nM', 25),
  ('CN(C)C(=O)c1ccc(CCCCCC2CCN(C(=O)C(O)(c3ccccc3)C(F)(F)F)CC2)cc1Cl (single isomer, unassigned) [Example 15-8]', 'nM', 9);

---

Listing: EC50 of selected molecules
- assayed-system: glutathione-S-transferase (GST) tagged LXRbeta LBD (ligand binding domain) (Homo sapiens, UniProt P55055)
- Construct: purchased Invitrogen pv4658.pps
- Sequence (P55055 222-460 limits assumed): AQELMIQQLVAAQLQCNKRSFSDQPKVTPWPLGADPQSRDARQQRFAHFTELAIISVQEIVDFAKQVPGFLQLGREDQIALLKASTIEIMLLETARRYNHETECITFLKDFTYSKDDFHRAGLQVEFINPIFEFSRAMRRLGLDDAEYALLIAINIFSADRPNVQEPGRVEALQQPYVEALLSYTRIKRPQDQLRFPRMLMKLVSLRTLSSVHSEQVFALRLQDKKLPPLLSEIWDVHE
- procedure-summary: LanthaScreen TR-FRET Liver X Receptor Coactivator Assay, LXR beta
- Type: biochemical
- assay-conditions: potency (Inflection Point) of compound-induced co-activator recruitment, TR-FRET; read-out: LXR beta IP
- Procedure: While running the LanthaScreen™ TR-FRET Liver X Receptor Coactivator Assay, LXR alpha-LBD or LXR beta-LBD was added to ligand test compounds followed by addition of a mixture of a fluorescein-labelled coactivator peptide and terbium-conjugated anti-GST antibody. After an incubation period at room temperature, TR-FRET (time-resolved fluorescence resonance energy transfer) was measured using a filter-based instrument capable of TR-FRET, e.g. PerkinElmer Envision.
observable: EC50 (nM)

INSERT INTO results (molecule, readout_value) VALUES
  ('CN(C)C(=O)c1ccc(NCCC2CC3(CCN(C(=O)C(O)(c4ccccc4)C(F)(F)F)CC3)C2)cc1Cl (single isomer, unassigned)', 6),
  ('CN(C)C(=O)c1ccc(CCCCC2CCN(C(=O)C(O)(c3ccccc3)C(F)(F)F)CC2)cc1Cl (single isomer, unassigned) [Example 15-2]', 28),
  ('CN(C)C(=O)c1c(F)cc(NCCC[C@H]2CC23CCN(C(=O)[C@](O)(c2ccccc2)C(F)(F)F)CC3)cc1F (single isomer, unassigned)', 49),
  ('COc1cccc([C@@](O)(C(=O)N2CCC([C@H]3C[C@H]3CSc3ccc(C(=O)N(C)C)c(Cl)c3)CC2)C(F)(F)F)c1 (single isomer, unassigned)', 27),
  ('CN(C)C(=O)c1ccc(CCCC2CC3(CCN(C(=O)C(O)(c4ccccc4)C(F)(F)F)CC3)C2)cc1Cl (single isomer, unassigned)', 59);

The origin of these recorded values is patent US10894775B2.
